Cited source: ChEMBL document CHEMBL4177575

pIC50: recorded values
System: HepG2
experimental-protocol: Cytotoxicity against human HepG2 cells assessed as reduction in cell viability incubated for 72 hrs by MTT assay
Format: functional, cell-based
measurement-parameters: HepG2, 72 h
pIC50: −log10 of the molar value.
recorded-metric: pIC50

>>> df
                                   compound  lt_gt_eq  observed_result
0  CNC(=O)c1cc(Oc2ccc(C3CC(c4ccc([N+](=O)[O-])cc4)=NN3)cc2)ccn1 (stereo not given)         =             4.54
1  CNC(=O)c1cc(Oc2ccc(C3=NNC(c4ccc([N+](=O)[O-])cc4)C3)cc2)ccn1 (stereo not given)         <             4.30
2  CNC(=O)c1cc(Oc2ccc(C3=NNC(c4ccc(C#N)cc4)C3)cc2)ccn1 (stereo not given)         =             4.82
3  CNC(=O)c1cc(Oc2ccc(C3=NN(C(N)=S)C(c4ccc(Cl)cc4)C3)cc2)ccn1 (stereo not given)         <             4.30
4  CNC(=O)c1cc(Oc2ccc(C3=NNC(c4cc(OC)c(OC)c(OC)c4)C3)cc2)ccn1 (stereo not given)         =             4.62
